test-summary: Inhibition of S-adenosylhomocystein hydrolase
parameter-measured: Ki (µM)
Kindly answer with a numeric value in µM, unit omitted.

# input molecule: O=c1[nH]c(=O)n([C@@H]2CC[C@@H](O)[C@H]2O)c2nc[nH]c12 ; wanted: its Ki
5

These measurements were taken from ChEMBL document CHEMBL1152426.
